system: SN12C; assay: NCI tumour cell line growth inhibition, 48 h
Calls of active or inactive are those of the source. Rule as the data show it: active = GI50 up to about 1.1 µM and inactive = higher.

COMPOUND	TARGET ENTITY	GI50
Cc1cc(Br)c(O)c(-c2cscn2)c1	SN12C	10.5 µM (inactive)
COCC12CC(CC1=O)C1C2ON2c3ccccc3C(=O)C12c1ccccc1 (centres undefined)	SN12C	> 100 µM (inactive)
O=C1C(N2CCOCC2)=C(Cl)C(=O)c2ncccc21	SN12C	1.75 µM (inactive)
CC(C)C1=C(Cc2ccccc2)C(=O)O/C1=C\c1ccc(O)c(Cl)c1	SN12C	16.9 µM (inactive)

###

As shown below, each of these compounds has a reported GI50 value.
test system: A498; test: NCI tumour cell line growth inhibition, 48 h
The source made the active and inactive calls. Cut-off read from the data, not from the text of the source: active = GI50 up to about 1.1 µM and inactive = higher.

COMPOUND	GI50
COC(=O)C12C3C4C1C1C2C3C41C(=O)NC(C)(C)CC(=O)O (centres undefined)	> 100 µM (inactive)
CCOC(=O)Cn1c(=O)n(C)c(=O)c2c1ncn2Cc1ccccc1	> 100 µM (inactive)
O=C1C=Cc2ncccc2C1=O	> 54 µM (inactive)
O=C1/C(=C/c2ccccc2)CCc2ccccc21	16.9 µM (inactive)
COc1ccc(C2CCc3c(cnc4nc(N)nc(N)c34)C2)cc1 (centres undefined)	38.4 µM (inactive)
CCCCCCc1nn2c(-c3ccncc3)nnc2s1	> 10 µM (inactive)
c1ccc(/C(=N/Nc2ccccn2)c2cccnn2)cc1	> 25.3 µM (inactive)
COc1cc2nc3c(=C(C#N)C#N)c4ccccc4n3c(=O)c2cc1OC	> 100 µM (inactive)
ClCc1nc2ccccc2[nH]1	> 100 µM (inactive)

###

tested on: OVCAR-8; assay: NCI tumour cell line growth inhibition, 48 h
The source made the active and inactive calls. Cut-off read from the data, not from the text of the source: active = GI50 up to about 1.1 µM and inactive = higher.
Labels: active, inactive

MOLECULE	ASSIGNED CATEGORY
C=CCCCN1CCCC(C)C1=S (configuration not stated)	inactive
Cc1nc(Nc2ccc([N+](=O)[O-])cc2)sc1C(=O)/C=C/c1ccc(N(C)C)cc1	inactive
COc1cc2c(cc1OC)C(=O)/C(=C/c1cc(C)cc(C)c1)C2	active
NC(=O)N1N=C2c3ccccc3SC[C@H]2[C@@H]1c1ccccc1	inactive
CCCN(C(=O)c1ccccc1)C(C#N)c1ccc(C(C#N)N(CCC)C(=O)c2ccccc2)cc1 (configuration not stated)	inactive
c1ccc(-c2nc3ccccc3nc2SCc2cccnc2)cc1	inactive
O=C(c1ccco1)C1CC(c2c(O)ccc3ccccc23)=NN1 (configuration not stated)	inactive
COC(=O)C1(Cc2ccccc2)Cc2cc3c(cc2C1)CCC3	inactive
COc1ccc2[nH]c3c(O)nncc3c2c1	inactive
CC1(C)CC[C@]2(C)CC[C@]3(C)C(=CC[C@@H]4[C@@]5(C)CCC(=O)C(C)(C)[C@@H]5[C@H](O)C[C@]43C)[C@@H]2C1	inactive
ClCc1nc2ccccc2[nH]1	inactive
Cc1c2cccc-2ccc2c3ccccc3n(C(=O)c3ccc(Cl)cc3)c12	inactive
O=C(c1ccccc1)c1ccc2[nH]c(-c3c(Cl)c(Cl)c(Cl)c(Cl)c3C(=O)N/N=C/c3cccc(Oc4ccccc4)c3)nc2c1	inactive
COCC12CC(CC1=O)C1C2ON2c3ccccc3C(=O)C12c1ccccc1 (configuration not stated)	inactive
CC(CCC(=O)O)C(=O)O (configuration not stated)	inactive
OC[C@H]1N[C@H](CO)[C@@H](O)[C@H]1O	inactive
COC(=O)c1ccccc1NC(=S)NN(C)C	inactive
O=C(O)Cn1ccc(=O)c2ccc([N+](=O)[O-])cc21	inactive
COC(=O)/C=C(\C)CCC1SC1(C)C (configuration not stated)	inactive
C=CCCc1cc(OC)ccc1CN(C)C(C)(C)CO	inactive
NC(=O)c1ccccc1NC(=O)C(=O)C(C(=O)c1ccc2ccccc2c1)C1OC(=O)c2ccccc21 (configuration not stated)	inactive
CC1=NN(C(=O)CC(=O)Nc2cccc(C)c2)C(=O)C1/N=N\c1ccc(S(=O)(=O)c2ccc(/N=N/C3C(=O)N(C(=O)CC(=O)Nc4cccc(C)c4)N=C3C)cc2)cc1 (configuration not stated)	inactive
COC(=O)/C(=N\NC(N)=S)C(C(=O)OC)C(=O)C(=O)Nc1ccc(C)cc1 (configuration not stated)	inactive
C=C1CC(Cn2ccc(=O)[nH]c2=O)(c2ccc(OC)cc2)OC1=O (configuration not stated)	inactive
N#C/C=c1/c2ccccc2n2nc3ccccc3c12	inactive
Cc1nc(Nc2ccccc2Cl)sc1C(=O)CC(=O)C(=O)Nc1c(Cl)cccc1Cl	inactive
CN(N)c1nc(N)c(C#N)c(C#N)c1C#N	inactive
CC(C)(C)C(=O)C(CC(=O)c1ccccc1)C(=O)C(C)(C)C	inactive
NC(=O)CC(N)c1nnn[nH]1 (configuration not stated)	inactive
COc1cc(OC)c(OC)cc1/C=C\c1nccc2ccccc12	inactive
O=C1C=CC(=O)c2c1ccc1c3ccccc3n(Cc3ccccc3)c21	inactive
CNS(=O)(=O)c1ccccc1C(=N)c1ccccc1	inactive

###

tested on: HCT-116; test: NCI tumour cell line growth inhibition, 48 h
Activity calls are given as the source filed them. Rule as the data show it: active = GI50 up to about 1.1 µM and inactive = higher.
As shown below, each of these molecules has a reported GI50 value.
READOUT: GI50

1) O=C1C=Cc2ncccc2C1=O 16.9 µM (inactive)
2) C[n+]1cccc2ccc3cccnc3c21 19.4 µM (inactive)
3) CN(C)CCCn1nc(N)c2nc3cc(Cl)ccc3nc21 30.3 µM (inactive)

###

system: SNB-75; test: NCI tumour cell line growth inhibition, 48 h
The source made the active and inactive calls. Rule as the data show it: active = GI50 up to about 1.1 µM and inactive = higher.
READOUT: GI50

MOLECULE	TARGET ENTITY	READOUT	VALUE
C=CC(Br)(CBr)CCC(Br)C(C)(C)Cl (stereo unspecified)	SNB-75	GI50	2.71 µM (inactive)
[N-]=[N+]=NC(c1cn(C2CC(O)C(CO)O2)c(=O)[nH]c1=O)C(Cl)Br (stereo unspecified)	SNB-75	GI50	> 100 µM (inactive)
Sc1nnc(COc2ccc(Cl)cc2)[nH]1	SNB-75	GI50	> 100 µM (inactive)
CCOC(=O)/C=C1/Oc2ccccc2C1(C)O (stereo unspecified)	SNB-75	GI50	> 100 µM (inactive)
NC(Cc1ccc(O)cn1)C(=O)NC(C(=O)O)c1ccccc1 (stereo unspecified)	SNB-75	GI50	> 100 µM (inactive)
Brc1ccc(/N=c2/nc3ccccn3n3nc(-c4ccccc4)cc23)cc1	SNB-75	GI50	52.4 µM (inactive)

###

test system: CAKI-1; experiment: NCI tumour cell line growth inhibition, 48 h
Active and inactive are the calls of the source. Rule as the data show it: active = GI50 up to about 1.1 µM and inactive = higher. Peptide text beside a SMILES is read from it. * marks the point of attachment. Cbz = O=C(OCc1ccccc1)*
Labels: active, inactive

MOLECULE	TARGET ENTITY	ASSIGNED CATEGORY
CN(C)CC1CCC(CN(C)C)C(=O)C1=O (stereo not drawn)	CAKI-1	inactive
CC(=O)C1=CSC2[C@H](NC(=O)Cc3ccccc3)C(=O)N2C1C(=O)OC(c1ccccc1)c1ccccc1 (stereo partly drawn)	CAKI-1	inactive
COC(=O)c1cc(OC(C)=O)c2c(OC)ccc(OC)c2c1	CAKI-1	inactive
C=C1CC(Cn2ccc(=O)[nH]c2=O)(c2ccc(OC)cc2)OC1=O (stereo not drawn)	CAKI-1	inactive
CNC(=O)c1nnn(C2CCCCC2)c1S	CAKI-1	inactive
C/C(=N\O)C1CC(CC(=O)O)C1(C)C (stereo not drawn)	CAKI-1	inactive
NC(=O)c1ccccc1NC(=O)C(=O)C(C(=O)c1ccc2ccccc2c1)C1OC(=O)c2ccccc21 (stereo not drawn)	CAKI-1	inactive
CCCCCCCCCCCCCCCC(=O)Nc1ccn(C2CC(OP(=O)(O)OCC3OC(n4cc(F)c(=O)[nH]c4=O)CC3OC(C)=O)C(CO)O2)c(=O)n1 (stereo not drawn)	CAKI-1	inactive
CN1CCC(CN2c3ccccc3Sc3ccccc32)CC1	CAKI-1	inactive
CCCCCCc1nn2c(-c3ccncc3)nnc2s1	CAKI-1	inactive
CN1CCCC2C(c3ccccc3)C(C3=NCCCC3)C(c3ccccc3)CC21 (stereo not drawn)	CAKI-1	inactive
O=S(=O)(O)c1ccc2cccc(/N=N\c3c(O)ccc4ccccc34)c2c1	CAKI-1	inactive
Cc1cn(Cc2cccc(C3=NCCCN3)c2)c(=O)n(Cc2cccc(C3=NCCCN3)c2)c1=O	CAKI-1	inactive
Cc1ccc(C2=C(C#N)C(=O)N3CCN=C3S2)cc1	CAKI-1	inactive
CC(=O)OC1CCCn2c1nc1c2C(=O)C(C)=C(N2CC2)C1=O (stereo not drawn)	CAKI-1	active
CCOC(=O)NC(=O)c1cn(CCN2CCN(C(=O)CCCCCCCCCCNc3ncnc4c3ncn4C3OC(CO)C(O)C3O)CC2)c(=O)[nH]c1=O (stereo not drawn)	CAKI-1	inactive
O=C1NC(=S)N/C1=C/c1c(-c2ccccc2)[nH]c2ccccc12	CAKI-1	inactive
COc1cc2nc(-c3cccs3)nc(Cl)c2cc1OC	CAKI-1	inactive
O=C1/C(=C/c2ccc([N+](=O)[O-])cc2)C(=O)N(c2ccccc2)C1c1ccccc1 (stereo not drawn)	CAKI-1	inactive
O=C1C[C@@H]2CCCC[C@@H]2C12SCCS2	CAKI-1	inactive
Cc1cc2c(cc1Cl)SC(NS(=O)(=O)c1ccc(Cl)cc1)=NS2(=O)=O	CAKI-1	inactive
O=C(O)CCC(NC(=O)OCc1ccccc1)C(=O)NC(Cc1c[nH]cn1)C(=O)O (stereo not drawn) (Cbz-Glu-His-OH; configuration not given here)	CAKI-1	inactive
CC(C)c1ccc2c(c1)CCC1C(C)(C)[C@@H](O)CC[C@]21C (stereo partly drawn)	CAKI-1	inactive

// data source = ChEMBL document CHEMBL1201862
